Molecular target: Cellular tumor antigen p53 (Homo sapiens) (UniProt P04637)
Sequence (P04637 whole entry, looked up): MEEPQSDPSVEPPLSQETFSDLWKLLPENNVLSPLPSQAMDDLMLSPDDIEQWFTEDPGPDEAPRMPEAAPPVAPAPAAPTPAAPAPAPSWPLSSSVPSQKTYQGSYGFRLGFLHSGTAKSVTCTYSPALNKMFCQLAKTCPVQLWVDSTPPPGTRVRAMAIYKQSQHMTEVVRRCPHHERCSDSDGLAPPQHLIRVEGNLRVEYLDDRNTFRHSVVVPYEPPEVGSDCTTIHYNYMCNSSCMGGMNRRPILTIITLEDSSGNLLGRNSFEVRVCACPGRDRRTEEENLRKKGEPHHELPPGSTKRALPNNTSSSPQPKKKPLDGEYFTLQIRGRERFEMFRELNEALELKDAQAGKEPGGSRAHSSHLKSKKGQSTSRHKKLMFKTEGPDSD
Experiment: Primary qHTS for small molecule compounds that upregulate eGFP-tagged delta133p53alpha (in N-terminal) cells. (AID 2060322);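 also: cells pre-induced with doxycycline then dosed without doxycycline; series mostly up to about 56 µM; 0% = DMSO vehicle and 100% = reference activator; nearly all actives have a fitted effect of over 75% in size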
Details: NCI-H358 eGFP-delta133p53alpha fluorescence, 24 h; active compounds read high
Inconclusive results are not listed.
ASSAY ENDPOINT: activation (%)
Record the value in %, omitting the unit from your answer.

Past entries and their recorded results:
C[C@](Cc1ccc(O)c(O)c1)(NN)C(=O)O
-15.4
C[C@@H]1O[C@@H](O[C@H]2[C@@H]3C=CO[C@@H](O[C@@H]4O[C@H](CO)[C@@H](O)[C@H](O)[C@H]4O)[C@@H]3[C@@]3(CO)O[C@@H]23)[C@H](O)[C@H](OC(=O)/C=C/c2ccccc2)[C@H]1O
0.763
C/C1=C\[C@@H](C)C[C@@H](C)[C@@H](Cc2cnco2)OC(=O)/C(C)=C/[C@@H](C)C[C@@H](C)[C@@H](Cc2cnco2)OC1=O
0

Query: Please report the recorded activation for C=C(CO)C(=O)O[C@H]1C[C@@]23O[C@@H]2CC/C(=C/[C@H]2OC(=O)C(=C)[C@H]12)CO[C@H]3O .
Reply: 26.8

Query: Please report the recorded activation for CC(=O)OC[C@]1(O)[C@H]2[C@H](OC(=O)CC(C)C)OC=C(CO[C@@H]3O[C@H](CO)[C@@H](O)[C@H](O)[C@H]3O)[C@H]2C[C@@H]1O .
Reply: -1.79

Query: Please report the recorded activation for O=C1OC(CN2CCOCC2)CN1/N=C/c1ccc([N+](=O)[O-])o1 (stereo not given) .
Reply: 5.02

Query: Please report the recorded activation for CCC1NC(=O)c2cc(S(N)(=O)=O)c(Cl)cc2N1 (stereo not given) .
Reply: -21.8

Query: Please report the recorded activation for C=C1[C@H](OC(C)=O)[C@H]2[C@@H](OC(C)=O)[C@](C)(OC(C)=O)C[C@]2(OC(C)=O)C(=O)[C@H](C)/C=C/C(C)(C)C(=O)[C@H](OC(=O)C(C)C)[C@H]1OC(C)=O .
Reply: 2.29

Query: Please report the recorded activation for O=C(/C=C\c1ccc(O)cc1)N[C@@H](Cc1ccc(O)cc1)C(=O)O .
Reply: 17.9

Query: Please report the recorded activation for O=C(CCCCCCSc1ccc2ccccc2c1)NO .
Reply: 0

Query: Please report the recorded activation for Nc1ccc(O)c(C(=O)O)c1 .
Reply: -19.2

Query: Please report the recorded activation for OC[C@H]1O[C@@H](OCCc2ccc(O)cc2)[C@H](O)[C@@H](O)[C@@H]1O .
Reply: -13.7

Query: Please report the recorded activation for CCN1CCCC1=O .
Reply: 10.7

Query: Please report the recorded activation for COc1cc(C(CO)CO[C@@H]2O[C@H](CO)[C@@H](O)[C@H](O)[C@H]2O)ccc1O (stereo not given in full) .
Reply: -11.5

Query: Please report the recorded activation for O=C1NC(O)CCN1[C@@H]1O[C@H](CO)[C@H](O)[C@H]1O (stereo not given in full) .
Reply: -10.6

Query: Please report the recorded activation for C[C@H]1[C@H](C)CC[C@]2(C(=O)O)CC[C@]3(C(=O)O)C(=CCC4[C@@]5(C)CC[C@H](O[C@@H]6O[C@H](C)[C@@H](O)[C@H](O)[C@H]6O)C(C)(C)C5CC[C@]43C)[C@H]12 (stereo not given in full) .
Reply: -5.36

Query: Please report the recorded activation for COc1ccc2cc1Oc1cc3c(cc1OC)CC[N+](C)(C)[C@H]3Cc1ccc(cc1)Oc1c(OC)c(OC)cc3c1[C@@H](C2)[N+](C)(C)CC3 .
Reply: 13

Query: Please report the recorded activation for COc1ccc(Oc2c(Cl)cnn(C3c4ccccc4-c4ccccc43)c2=O)cc1 .
Reply: 13.4

Query: Please report the recorded activation for Cc1nc2n(c(=O)c1CCN1CCC(c3noc4cc(F)ccc34)CC1)CCCC2O (stereo not given) .
Reply: 3.58

Query: Please report the recorded activation for COc1cc(C)c(C=CC(C)=CC=CC(C)=CC(=O)O)c(C)c1C .
Reply: 21.4

Query: Please report the recorded activation for CC1(C)O[C@H]2C[C@@H]3[C@H]4CCC5=CC(=O)C=C[C@]5(C)[C@@]4(F)[C@@H](O)C[C@]3(C)[C@]2(C(=O)CO)O1 .
Reply: 8.11

Query: Please report the recorded activation for O=C(Nc1ccccc1)N1CCC(Cc2cnc3ccccc3c2)CC1 .
Reply: 3.34
